The reported numbers originate from the supplement of paper PMC9170038.

- Tested on: MS2 coat protein
- Protocol notes: apparent KD of MS2 coat protein; designed switch direction (-1 OFF switch, 1 ON switch): -1; higher = weaker reporter binding
- Condition notes: input ligand: none
Rule: 1 for apparent KD of MS2 coat protein not less than 0.02 µM, 0 for anything less.

// below: answered sequences
CCCAGUUACUGAGGAUAUCCUACAUGAGGAUCACCCAUGUAAUAAAUGAGGAUUUCGGGUGUCUAGGAGAAGGCAGGGAUAGGC [Ostracism 23 - Jieux - Exclusion NG 2] (Eterna round: R96, puzzle: Exclusion NG 2)    1
GAAGUUAGAGGAUAUACAUGAGGAUCACCCAUGUGUGAAGUAAACUUUGUAUGUUUAUGUAGAAGGCUAACUUC [-21.7, -19.9 kcal, 32% A] (Eterna round: R97, puzzle: Exclusion 3)    0
AGCCCUGCAGGAUAUGCCCGGGAUAACAUGAGGAUCACCCAUGUGACUGAUUGUUAUCCUGCAGAAGGGCAUGGGA [JL-EX5-4.13 ViennaUCT mod] (Eterna round: R97, puzzle: Exclusion 5)    1
UGAGUGCUGCGAGGAUAUACAUGAGGAUCACCCAUGUAAUCGUGUGAGCCAAAGGCUCACACGAAGUAGAAGGCGCAGUACUCU [Mat - Exclusion NG 2 - Mod of JL - D25] (Eterna round: R96, puzzle: Exclusion NG 2)    0
GAUUAUGCGAGCUUUAGGGACAUGAGGAUCACCCAUGUUCGUCUUAUUGGUCUGAAUACACUGACAUACCUAAAUCU [JMF 56] (Eterna round: R96, puzzle: Sensor v3, turn-off variant 1)    0

input: Record CCAAGCUUAUUCAUUAACAACAUGAGGAUCACCCAUGUGUAAGCAAUUAUGUUUGGGCUCUUUAGUGCUCGUCUUAU [Sensor-V1 #21] (Eterna round: R97, puzzle: Sensor, turn-off variant 1) ; criterion: apparent KD of MS2 coat protein no lower than 0.02 µM. Met?
output: 0

input: I'd appreciate it if you could say whether UACCUGAGGCAAAGCUUUAGGCUUACAUGAGGAUCACCCAUGUAGGAUAUGGUAGGCUUUGCUUACCAGAAGGACAUGGAAAUU [Mat - Exclusion NG 3 - Mod of JL - D22] (Eterna round: R96, puzzle: Exclusion NG 3) has apparent KD of MS2 coat protein at least equal to 0.02 µM.
output: 0

input: Assess whether reported apparent KD of MS2 coat protein for GUGCAACAUGAGGAUCACCCAUGUCAGGAUAUGCGAAUUUCAUCAAAAGAUGAAAUUUGCAGAAGGGACUAUAC [Omei Ex1 A22] (Eterna round: R97, puzzle: Exclusion 1) sits at 0.02 µM or higher.
output: 1

input: hey, is apparent KD of MS2 coat protein for this one >= 0.02 µM? AAAAAGGCAGGAUAUACGAGUCAAAGAAAAGACAAAAGGAGACAUGAGGAUCACCCAUGUAGAAGGGCCAAAAA [Fiskers exclusion D2 62% 5] (Eterna round: R96, puzzle: Exclusion 2)
output: 1

###

- Tested on: MS2 coat protein
- Protocol notes: apparent KD of MS2 coat protein; designed switch direction (-1 OFF switch, 1 ON switch): -1; higher = weaker reporter binding
- Condition notes: input ligand: none
Recorded metric: apparent KD of MS2 coat protein (nM)
Numbers only, in nM.

Guide cases for apparent KD of MS2 coat protein, answers given:
CGCUGGGCAGGAUAUGUUCUUGAGCACUUGAGGAUCACCCAAGUCAUCAAGAACUCAGGCACAGAAGGGUUUAUGG [salish99_ex5_r4_017] (Eterna round: R97, puzzle: Exclusion 5)    13.4
GAUCAUGCAGGAUAUACAUUAACCAUGAAAACAUGGUUGUCACAUGAGGAUCACCCAUGUAGAAGGGCAUGAUC [Omei Ex2 A6] (Eterna round: R97, puzzle: Exclusion 2)    23.5
CCAAGCUUAUUCAUUAACCACAUGAGGAUCACCCAUGUCUAGGCAAUUAUGACUGGCCCAUCUGGUGCUCGUCUUAU [Sensor-V1 #31] (Eterna round: R97, puzzle: Sensor, turn-off variant 1)    20.8
ACUUAUUGAGGAUAUACAUAGAUUUACAUGAGGAUCACCCAUGUUCCUCUAUGUAUAUAUGUAGAAGGCAGAAGAA [JL-ex5-4.32 Malcolm mod] (Eterna round: R97, puzzle: Exclusion 5)    15.7

input: Provide MS2 coat protein apparent KD of MS2 coat protein reading for AAUAAUUGUGACUUGGGUGACAUGAGGAUCACCCAUGUCACAAGCUUGUUGCUCGUCUUAUAAUUAACCCAUGUCAC [LRO Sensor-off var1-25 mod of Stov1-13-A1 by Brourd] (Eterna round: R97, puzzle: Sensor, turn-off variant 1) .
output: 40.9

###

- Tested on: MS2 coat protein
- Protocol notes: apparent KD of MS2 coat protein; designed switch direction (-1 OFF switch, 1 ON switch): -1; higher = weaker reporter binding
- Condition notes: Eterna round: R95; input ligand: FMN 200 uM
Kindly supply the reported apparent KD of MS2 coat protein values for the records listed here.
Give bare numbers, in µM.

Give measured apparent KD of MS2 coat protein for every item shown.
1. AAAUGCAAGUAAAGAUUCUACAUGAGGAUCACCCAUGUGCUCGUCUUAUAAAGUACUAUCACGAAAGUGAUAGUACA [Sensor 3, v1 - 35] (puzzle: Sensor v3, turn-off variant 1)
2. AGUACUAACACGUAAGUGUUAGUACAAUAAGCUUGUGUUACAUGAGGAUCACCCAUGUCCUCAUAAGCUCGUCUUAU [Mat - Sensor v3 - Turn-off var 2 - D60] (puzzle: Sensor v3, turn-off variant 2)
3. UUUUACAUCUAUGGGAGUGACAUGAGGAUCACCCAUGUAUGUCUUGUUUUUUGUUCGUCUAGGACUUUCUGAUCAGU [JR_SV3TOV1_Sub033] (puzzle: Sensor v3, turn-off variant 1)

output:
1: 0.0142; 2: 0.134; 3: 0.565

###

- System: MS2 coat protein
- Protocol notes: apparent KD of MS2 coat protein, switch OFF state (with FMN for OFF switches, without FMN for ON switches); designed switch direction (-1 OFF switch, 1 ON switch): -1; higher = weaker reporter binding
- Condition notes: FMN input: 0 or 200 uM; Eterna round: R93 (includes R88 designs)
Recorded metric: apparent KD of MS2 coat protein (nM)
Answers are plain numbers, in nM.

Illustrative cases are given below, each with its answer.
AUAGUACAUGAGGAUCACCCAUGUCAGGAUAUUGGAUAUGACAAAAAAAAAAAGUUAACGAGAAGGGACUAUAA [EX1 Malc#15]    36.6
GGAUGCGAAGGAUAUACAUGAGGAUCACCCAUGUGAGAGAAAAAAGUGAGAAAGAAAAGUAGAAGGUCGUGUCG [salish99-ex3-93]    97.2
AGAAUACAUGAGGAUCACCCAUGUGAGGAUAUGUAGAUAAAAAUAAAAUAAAAUAAAUACAGAAGGCACAAAAG [EX 1 May 19]    59.7
AAAAAGUCAGGAUAUUCGGAAGGGAAAGCGCAAACCCAACCGAAGAAGGGACAUGAGGAUCACCCAUGUAAAAA [Ecls4-III]    42.9
AACAGUACAGGAUAUACAUGAGGAUCACCCAUGUAAAAAGGGAGUGGCGUACCACAAAGUAGAAGGGUACUGGA [Moding Maslow revisited (73) 7]    172

Report apparent KD of MS2 coat protein for every entry below.
1. GGUUGGCGAGGAUAUACAUGAGGAUCACCCAUGUGAGAGAAAAAAGUGAGACAGAAAAGUAGAAGGCGCUGACG [salish99-ex3-24]
2. AGAAAGUGAGGAUAUUCGGAUAGGAAAACGAAAACCUAUCCGAAGAAGGCACAUGAGGAUCACCCAUGUAAAGA [Mat - Exaclusion 4 - Eli mod - D39]
3. AAGAAGUGAGGAUAUGCUUGUCGUCACAAAAGUGAUGACGAGCAGAAGGCACAUGAGGAUCACCCAUGUAAAGA [Opal 27]

output:
7.45
54
49.9

###

- Tested on: MS2 coat protein
- Protocol notes: apparent KD of MS2 coat protein; designed switch direction (-1 OFF switch, 1 ON switch): -1; higher = weaker reporter binding
- Condition notes: input ligand: none
Recorded metric: apparent KD of MS2 coat protein (nM)
Give bare numbers, in nM.

AGUCCUGGAGUUAGGAUAUGGUGUAUCGCUGCGCUUCAGAAGGGACUUGAGGAUCACCCAAGUAGCCGUGAGGG [salish99_bmod_ex4_r4_007] (Eterna round: R97, puzzle: Brourd's mod of Exclusion 4)    60.2

Could you now consider this next sequence?
input: Please supply the value of reported apparent KD of MS2 coat protein for the item CAUUAUUAUCGAGGAUAUCCUAUUGAAAUUCUGGGAGAAGGCGGACUCAACAUGAGGAUCACCCAUGUGGGACGGAUGCUAGGC [salish99_exng1_r04_601] (Eterna round: R96, puzzle: Exclusion NG 1)
output: 19.3
